Assay: In vivo pharmacokinetic study in dogs, oral dose of ARI-158
Set-up: species or system male beagle dogs
Conditions: male, beagle, dog, plasma, po, 10 mg/kg, dogs; 10 mg/kg oral dose of ARI-158; time 4 h; Mean
Measured Metric: concentration at 4 h (ng/mL)

>>> print(df.to_string())
                                smiles_code       measured_metric  measurement
0  CCC(=O)c1csc(C(=O)c2cn(P(=O)([O-])[O-])c3cc(F)ccc23)n1.[Na+].[Na+]  concentration at 4 h         31.8

----------
Assay: In vivo pharmacokinetic study in dogs, oral dose of ARI-158
Set-up: species or system male beagle dogs
Conditions: male, beagle, dog, plasma, po, 10 mg/kg, dogs; 10 mg/kg oral dose of ARI-158; Dog 12
Measured Metric: half-life (h)

>>> df
                                smiles_code  measurement
0  CCC(=O)c1csc(C(=O)c2cn(P(=O)([O-])[O-])c3cc(F)ccc23)n1.[Na+].[Na+]         1.02

----------
Assay: In vivo pharmacokinetic study in dogs, oral dose of ARI-158
Parameters: species or system male beagle dogs
Conditions: male, beagle, dog, plasma, po, 10 mg/kg, dogs; 10 mg/kg oral dose of ARI-158; time 2 h; Dog 12
Measured Metric: concentration at 2 h (ng/mL)

>>> df
                                   compound  quantity_unit  measurement
0  CCC(=O)c1csc(C(=O)c2cn(P(=O)([O-])[O-])c3cc(F)ccc23)n1.[Na+].[Na+] [ARI-158]          ng/mL          158

----------
Experiment: In vivo pharmacokinetic study in dogs, oral dose of ARI-158
Design: species or system male beagle dogs
Conditions: male, beagle, dog, plasma, po, 10 mg/kg, dogs; 10 mg/kg oral dose of ARI-158; time 0.083 h; Dog 12
Measured Metric: concentration at 0.083 h (ng/mL)

>>> df
                                   compound           measured_metric  measurement
0  CCC(=O)c1csc(C(=O)c2cn(P(=O)([O-])[O-])c3cc(F)ccc23)n1.[Na+].[Na+] [ARI-158]  concentration at 0.083 h         14.3

----------
Assay: In vivo pharmacokinetic study in dogs, oral dose of ARI-158
Design: species or system male beagle dogs
Settings: male, beagle, dog, plasma, po, 10 mg/kg, dogs; 10 mg/kg oral dose of ARI-158; time 0.083 h; Mean
Measured Metric: concentration at 0.083 h (ng/mL)

>>> df
                                smiles_code  measurement
0  CCC(=O)c1csc(C(=O)c2cn(P(=O)([O-])[O-])c3cc(F)ccc23)n1.[Na+].[Na+]          105

----------
Assay: In vivo pharmacokinetic study in dogs, oral dose of ARI-158
Set-up: species or system male beagle dogs
Settings: male, beagle, dog, plasma, po, 10 mg/kg, dogs; 10 mg/kg oral dose of ARI-158; time 2 h; Dog 10
Measured Metric: concentration at 2 h (ng/mL)

>>> df
                                smiles_code  measurement
0  CCC(=O)c1csc(C(=O)c2cn(P(=O)([O-])[O-])c3cc(F)ccc23)n1.[Na+].[Na+]          128

----------
Assay: In vivo pharmacokinetic study in dogs, oral dose of ARI-158
Parameters: species or system male beagle dogs
Settings: male, beagle, dog, plasma, po, 10 mg/kg, dogs; 10 mg/kg oral dose of ARI-158; Dog 12
Measured Metric: Cmax (ng/mL)

                                   compound  measurement
0  CCC(=O)c1csc(C(=O)c2cn(P(=O)([O-])[O-])c3cc(F)ccc23)n1.[Na+].[Na+] [ARI-158]          275

----------
Assay: In vivo pharmacokinetic study in dogs, oral dose of ARI-158
Design: species or system male beagle dogs
Settings: male, beagle, dog, plasma, po, 10 mg/kg, dogs; 10 mg/kg oral dose of ARI-158; time 8 h; Mean
Measured Metric: concentration at 8 h (ng/mL)

In [3]: df
Out[3]:
                                smiles_code       measured_metric  measurement
0  CCC(=O)c1csc(C(=O)c2cn(P(=O)([O-])[O-])c3cc(F)ccc23)n1.[Na+].[Na+]  concentration at 8 h         3.05

----------
Experiment: In vivo pharmacokinetic study in dogs, oral dose of ARI-158
Parameters: species or system male beagle dogs
Details: male, beagle, dog, plasma, po, 10 mg/kg, dogs; 10 mg/kg oral dose of ARI-158; time 4 h; Dog 11
Measured Metric: concentration at 4 h (ng/mL)

In [3]: df
Out[3]:
                                smiles_code  quantity_unit  measurement
0  CCC(=O)c1csc(C(=O)c2cn(P(=O)([O-])[O-])c3cc(F)ccc23)n1.[Na+].[Na+]          ng/mL         14.4

----------
Experiment: In vivo pharmacokinetic study in dogs, oral dose of ARI-158
Design: species or system male beagle dogs
Details: male, beagle, dog, plasma, po, 10 mg/kg, dogs; 10 mg/kg oral dose of ARI-158; time 0.083 h; Dog 10
Measured Metric: concentration at 0.083 h (µg/mL)

                                   compound           measured_metric  quantity_unit  measurement
0  CCC(=O)c1csc(C(=O)c2cn(P(=O)([O-])[O-])c3cc(F)ccc23)n1.[Na+].[Na+] [ARI-158]  concentration at 0.083 h          µg/mL        0.153

----------
Test: In vivo pharmacokinetic study in dogs, oral dose of ARI-158
Set-up: species or system male beagle dogs
Conditions: male, beagle, dog, plasma, po, 10 mg/kg, dogs; 10 mg/kg oral dose of ARI-158; time 1 h; Dog 12
Experimental: This example describes pharmacokinetic (PK) studies of ARI-158 and ARI-160 in dogs and rats, respectively. In the present studies, the test compounds were given to groups of male beagle dogs and rats (N=3 in each group) intravenously (IV) at 2 mg/kg or orally (PO) at 10 mg/kg. IV doses were formulated in DMSO, while PO doses were formulated in a 50/50 mixture of PEG400 and Tween 80. […] Plasma concentrations of the indolo-phosphoramidate compounds were determined by HPLC.
Measured Metric: concentration at 1 h (ng/mL)

                                   compound       measured_metric  quantity_unit  measurement
0  CCC(=O)c1csc(C(=O)c2cn(P(=O)([O-])[O-])c3cc(F)ccc23)n1.[Na+].[Na+] [ARI-158]  concentration at 1 h          ng/mL          275

----------
Assay: In vivo pharmacokinetic study in dogs, oral dose of ARI-158
Parameters: species or system male beagle dogs
Settings: male, beagle, dog, plasma, po, 10 mg/kg, dogs; 10 mg/kg oral dose of ARI-158; Mean
Measured Metric: half-life (h)

In [3]: df
Out[3]:
                                   molecule  measurement
0  CCC(=O)c1csc(C(=O)c2cn(P(=O)([O-])[O-])c3cc(F)ccc23)n1.[Na+].[Na+] [ARI-158]         1.01

----------
Test: In vivo pharmacokinetic study in dogs, oral dose of ARI-158
Parameters: species or system male beagle dogs
Conditions: male, beagle, dog, plasma, po, 10 mg/kg, dogs; 10 mg/kg oral dose of ARI-158; time 1 h; Dog 10
Measured Metric: concentration at 1 h (ng/mL)

>>> print(df.to_string())
                                   compound       measured_metric  quantity_unit  measurement
0  CCC(=O)c1csc(C(=O)c2cn(P(=O)([O-])[O-])c3cc(F)ccc23)n1.[Na+].[Na+] [ARI-158]  concentration at 1 h          ng/mL          677

----------
Assay: In vivo pharmacokinetic study in dogs, oral dose of ARI-158
Set-up: species or system male beagle dogs
Settings: male, beagle, dog, plasma, po, 10 mg/kg, dogs; 10 mg/kg oral dose of ARI-158; time 6 h; Dog 12
Method: This example describes pharmacokinetic (PK) studies of ARI-158 and ARI-160 in dogs and rats, respectively. In the present studies, the test compounds were given to groups of male beagle dogs and rats (N=3 in each group) intravenously (IV) at 2 mg/kg or orally (PO) at 10 mg/kg. IV doses were formulated in DMSO, while PO doses were formulated in a 50/50 mixture of PEG400 and Tween 80. […] Plasma concentrations of the indolo-phosphoramidate compounds were determined by HPLC.
Measured Metric: concentration at 6 h (ng/mL)

In [3]: df
Out[3]:
                                smiles_code       measured_metric  measurement
0  CCC(=O)c1csc(C(=O)c2cn(P(=O)([O-])[O-])c3cc(F)ccc23)n1.[Na+].[Na+]  concentration at 6 h         14.1

Source listed as patent US20210347794A1.
